What IC50 was measured for each of the following?
target.system: human serotonin 5-HT2A receptor (Homo sapiens, UniProt P28223)
Construct: expressed in transfected cells; host or cells: CHO-K1
Sequence (P28223 whole entry): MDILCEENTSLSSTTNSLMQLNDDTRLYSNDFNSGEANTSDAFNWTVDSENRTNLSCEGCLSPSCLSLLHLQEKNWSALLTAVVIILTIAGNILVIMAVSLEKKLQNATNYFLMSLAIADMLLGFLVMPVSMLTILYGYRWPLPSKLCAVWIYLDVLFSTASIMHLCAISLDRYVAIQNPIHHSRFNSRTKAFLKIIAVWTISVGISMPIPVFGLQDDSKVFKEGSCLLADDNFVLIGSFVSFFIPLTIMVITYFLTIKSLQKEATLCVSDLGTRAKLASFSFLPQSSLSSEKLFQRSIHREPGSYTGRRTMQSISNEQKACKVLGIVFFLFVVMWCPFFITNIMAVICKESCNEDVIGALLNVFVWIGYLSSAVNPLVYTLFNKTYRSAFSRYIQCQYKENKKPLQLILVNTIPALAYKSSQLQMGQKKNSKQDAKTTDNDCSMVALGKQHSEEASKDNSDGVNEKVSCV
run.description: Radioligand binding assay, human 5-HT2A receptors ([3H]Ketanserin)
experimental.setup: human; Example 100 table; read-out: IC50 (nM) 5-HT2A

Note down IC50 recorded for COc1ccccc1N1CCN(c2nc(C3(c4ccccc4F)CCCCC3)cs2)CC1 [Compound 97] > 1000 nM

Note down IC50 recorded for Fc1ccccc1C1(c2csc(NCCCN3CCOCC3)n2)CCCC1 [Compound 96] > 1000 nM

Note down IC50 recorded for Cc1c(-c2csc(N3CCN(C)CC3)n2)sc2ccc(Cl)cc12 [Compound 113] < 1000 nM

Note down IC50 recorded for CN1CCCN(c2nc(C3(c4ccccc4F)CCCC3)cs2)CC1 [Compound 139] < 1000 nM

Note down IC50 recorded for Clc1ccc(C2(c3csc(N4CCOCC4)n3)CCOCC2)cc1 [Compound 124] > 1000 nM

Note down IC50 recorded for Clc1ccc(C2(c3csc(NCCCN4CCOCC4)n3)CCCCC2)cc1 [Compound 94] > 1000 nM

Note down IC50 recorded for Clc1ccc(C2(c3csc(NCCCN4CCOCC4)n3)CCCC2)cc1 [Compound 100] > 1000 nM

###

target.system: human muscarinic M3 receptor (Homo sapiens)
Construct: expressed in transfected cells; host or cells: BSR-M3H
Sequence (P20309 whole entry): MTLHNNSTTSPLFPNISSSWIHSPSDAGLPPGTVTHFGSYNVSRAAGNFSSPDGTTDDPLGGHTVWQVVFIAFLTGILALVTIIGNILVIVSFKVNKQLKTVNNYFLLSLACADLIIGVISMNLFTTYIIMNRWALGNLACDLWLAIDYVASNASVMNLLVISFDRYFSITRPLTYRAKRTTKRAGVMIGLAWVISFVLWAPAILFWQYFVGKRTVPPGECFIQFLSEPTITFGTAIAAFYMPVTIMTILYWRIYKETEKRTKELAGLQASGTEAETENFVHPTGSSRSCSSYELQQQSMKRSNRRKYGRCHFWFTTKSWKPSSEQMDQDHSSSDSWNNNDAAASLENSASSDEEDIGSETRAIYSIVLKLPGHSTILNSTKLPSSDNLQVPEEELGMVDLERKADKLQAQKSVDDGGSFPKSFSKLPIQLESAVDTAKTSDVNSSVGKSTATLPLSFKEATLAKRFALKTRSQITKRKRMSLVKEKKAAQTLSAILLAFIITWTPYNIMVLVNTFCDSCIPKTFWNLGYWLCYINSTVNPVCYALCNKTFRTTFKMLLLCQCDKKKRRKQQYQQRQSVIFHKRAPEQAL
run.description: Binding to human muscarinic M3 receptors ([3H]N-methylscopolamine)
Procedure: This assay measures binding of [^3H]N-methylscopolamine to human muscarinic M3 receptors. BSR-M3H cells transfected with a plasmid encoding the human muscarinic M3 receptor were used to prepare membranes in modified Tris-HCl pH 7.4 buffer using standard techniques. A 5 μg aliquot of membrane was incubated with 0.29 nM [^3H]N-methylscopolamine for 60 minutes at 25° C. […] Membranes were filtered and washed 3 times and the filters were counted to determine [^3H]N-methylscopolamine specifically bound. […]
pIC50: −log10 of the molar value.
measurement.label: pIC50

Give pIC50 only, for "CN1CCN(c2nc(C3(c4ccccc4)CCOCC3)cs2)CC1" , using human muscarinic M3 receptor (Homo sapiens) data. < 6.00

###

target.system: human dopamine D3 receptor (Homo sapiens, UniProt P35462)
Construct: expressed in transfected cells; host or cells: CHO
Sequence (P35462 whole entry): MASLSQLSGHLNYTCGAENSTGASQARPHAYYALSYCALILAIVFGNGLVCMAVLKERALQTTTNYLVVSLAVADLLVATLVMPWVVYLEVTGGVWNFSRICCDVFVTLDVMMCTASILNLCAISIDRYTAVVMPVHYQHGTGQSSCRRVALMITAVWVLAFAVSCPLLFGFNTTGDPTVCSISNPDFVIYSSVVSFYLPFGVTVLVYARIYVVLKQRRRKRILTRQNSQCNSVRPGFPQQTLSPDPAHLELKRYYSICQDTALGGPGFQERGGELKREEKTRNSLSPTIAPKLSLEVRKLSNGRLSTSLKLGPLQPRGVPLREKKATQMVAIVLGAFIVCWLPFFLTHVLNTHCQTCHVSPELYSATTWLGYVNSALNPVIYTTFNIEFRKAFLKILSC
run.description: Radioligand binding assay, human dopamine D3 receptors ([3H]Spiperone)
experimental.setup: human; Example 100 table; read-out: IC50 (nM) D3
What IC50 was measured for each of the following?

Note down IC50 recorded for CCN(CC)CCCNc1nc(C2(c3ccccc3F)CCCC2)cs1 [Compound 114] > 1000 nM

Note down IC50 recorded for Fc1ccccc1C1(c2csc(NCCCN3CCOCC3)n2)CCCC1 [Compound 96] > 1000 nM

Note down IC50 recorded for Fc1ccccc1C1(c2csc(N3CCN(Cc4ccc(Cl)cc4)CC3)n2)CCCC1 [Compound 110] > 1000 nM

Note down IC50 recorded for Clc1ccc(C2(c3csc(NC4CCN(Cc5ccccc5)C4)n3)CCCCC2)cc1 (stereo not drawn) [Compound 119] > 1000 nM

Note down IC50 recorded for CN(C)C1CCN(c2nc(C3(c4ccccc4F)CCCCC3)cs2)C1 (racemic) [Compound 136] > 1000 nM

Note down IC50 recorded for Fc1ccccc1C1(c2csc(N3CCNCC3)n2)CCCCC1 [Compound 127] < 1000 nM

Note down IC50 recorded for Clc1ccc(C2(c3csc(N4CCC(N5CCCCC5)CC4)n3)CCCCC2)cc1 [Compound 107] < 1000 nM

Note down IC50 recorded for CN1CCC(N(C)c2nc(C3(c4ccc(Cl)cc4)CCCC3)cs2)C1 (stereo not drawn) [Compound 116] > 1000 nM

Note down IC50 recorded for Clc1ccc(C2(c3csc(NCCN4CCCCC4)n3)CCCC2)cc1 [Compound 101] < 1000 nM

Note down IC50 recorded for CN1CCC(N(C)c2nc(C3(c4ccc(Cl)cc4)CCCCC3)cs2)C1 (stereo not drawn) [Compound 108] < 1000 nM

Note down IC50 recorded for CN1CCCC1CCNc1nc(C2(c3ccccc3F)CCCC2)cs1 (stereo not drawn) [Compound 111] < 1000 nM

Note down IC50 recorded for CN1CCN(c2nc(C3(c4ccccc4F)CCOCC3)cs2)CC1 [Compound 112] < 1000 nM

Note down IC50 recorded for CCN(CC)CCCNc1nc(C2(c3ccc(Cl)cc3)CCCCC2)cs1 [Compound 103] < 1000 nM

Note down IC50 recorded for Clc1ccc(C2(c3csc(NCCN4CCOCC4)n3)CCCCC2)cc1 [Compound 102] > 1000 nM

Note down IC50 recorded for CNC1CCN(c2nc(C3(c4ccccc4F)CCCCC3)cs2)C1 (stereo not drawn) [Compound 134] > 1000 nM

Note down IC50 recorded for Fc1ccccc1C1(c2csc(N3CCN(CC4CC4)CC3)n2)CCCC1 [Compound 122] < 1000 nM

Note down IC50 recorded for CN(C)C1CCN(c2nc(C3(c4ccc(Cl)cc4)CCCC3)cs2)C1 (stereo not drawn) [Compound 118] > 1000 nM

Note down IC50 recorded for CN1CCCN(c2nc(C3(c4ccccc4F)CCCC3)cs2)CC1 [Compound 139] < 1000 nM

Note down IC50 recorded for CN1CCCC1CCNc1nc(C2(c3ccc(Cl)cc3)CCOCC2)cs1 (racemic) [Compound 125] > 1000 nM

Note down IC50 recorded for COc1cccc(C2(c3csc(N4CCN(C)CC4)n3)CCOCC2)c1 [Compound 67] > 1000 nM

Note down IC50 recorded for CN1CCCC1CCNc1nc(C2(c3ccccc3F)CCCCC2)cs1 (single isomer, unassigned) [Compound 129] < 1000 nM

Note down IC50 recorded for Fc1ccccc1C1(c2csc(N3CCNCC3)n2)CCCC1 [Compound 121] > 1000 nM

Note down IC50 recorded for Clc1ccc(C2(c3csc(NCCN4CCOCC4)n3)CCCC2)cc1 [Compound 99] > 1000 nM

Note down IC50 recorded for Clc1ccc(C2(c3csc(NCCCN4CCOCC4)n3)CCCCC2)cc1 [Compound 94] > 1000 nM
